Data credit: patent US6994868B2

- target.of.assay: activated ERK2 (Homo sapiens, UniProt P28482)
- Sequence (P28482 whole entry): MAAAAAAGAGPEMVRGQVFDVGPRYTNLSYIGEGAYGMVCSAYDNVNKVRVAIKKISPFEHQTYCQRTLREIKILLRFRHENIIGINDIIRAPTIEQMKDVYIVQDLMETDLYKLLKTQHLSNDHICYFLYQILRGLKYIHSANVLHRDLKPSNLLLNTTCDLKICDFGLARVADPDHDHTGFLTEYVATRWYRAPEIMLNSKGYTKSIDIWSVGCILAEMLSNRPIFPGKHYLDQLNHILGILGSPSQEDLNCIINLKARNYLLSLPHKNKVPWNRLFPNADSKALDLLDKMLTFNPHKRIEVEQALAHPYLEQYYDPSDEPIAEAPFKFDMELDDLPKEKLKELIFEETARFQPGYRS
- assay.procedure: ERK inhibition assay (spectrophotometric coupled-enzyme assay)
- settings: activated ERK2 10 nM, 65 μM ATP, 200 μM erktide peptide, 30° C., pH 7.5; read-out: ERK2 Inhibitory Activity (Ki class)
pKi: −log10 of the molar value.
Could you please report measured pKi for the items listed next?

Ask | Please give the measured pKi for this compound: CC(C)NC(=O)c1cc(-c2[nH]ncc2-c2ccccc2)c[nH]1 [II-A-158]
Reply | 5.30 to 6.00

Ask | Please give the measured pKi for this compound: O=C(c1cc(-c2[nH]ncc2-c2ccccc2)c[nH]1)N1CCCC1 [II-A-134]
Reply | 5.30 to 6.00

Ask | Please give the measured pKi for this compound: COc1cccc(-c2cn[nH]c2-c2c[nH]c(C(=O)N3CCC(C)CC3)c2)c1 [II-A-163]
Reply | < 5.30

Ask | Please give the measured pKi for this compound: COc1cccc(-c2cn[nH]c2-c2c[nH]c(C(=O)N3CCCC3)c2)c1 [II-A-144]
Reply | 5.30 to 6.00

Ask | Please give the measured pKi for this compound: O=C(NCc1ccncc1)c1cc(-c2[nH]ncc2-c2cccc(F)c2)c[nH]1 [II-A-80]
Reply | > 6.00

Ask | Please give the measured pKi for this compound: O=C(NCc1ccccc1)c1cc(-c2[nH]ncc2-c2cccc(Cl)c2F)c[nH]1 [II-A-82]
Reply | > 6.00

Ask | Please give the measured pKi for this compound: O=C(NCc1ccccc1)c1cc(-c2[nH]ncc2-c2ccc(F)c(F)c2)c[nH]1 [II-A-85]
Reply | > 6.00

Ask | Please give the measured pKi for this compound: COc1ccccc1CNC(=O)c1cc(-c2[nH]ncc2-c2cccc(F)c2)c[nH]1 [II-A-63]
Reply | > 6.00

Ask | Please give the measured pKi for this compound: COc1cccc(-c2cn[nH]c2-c2c[nH]c(C(=O)NCc3cccnc3)c2)c1 [II-A-145]
Reply | 5.30 to 6.00

Ask | Please give the measured pKi for this compound: O=C(c1cc(-c2[nH]ncc2-c2ccccc2)c[nH]1)N1CCOCC1 [II-A-150]
Reply | 5.30 to 6.00

Ask | Please give the measured pKi for this compound: O=C(NCc1ccccc1)c1cc(-c2[nH]ncc2-c2cccc(F)c2F)c[nH]1 [II-A-103]
Reply | > 6.00

Ask | Please give the measured pKi for this compound: COc1cccc(-c2cn[nH]c2-c2c[nH]c(C(=O)NCc3ccco3)c2)c1 [II-A-147]
Reply | 5.30 to 6.00

Ask | Please give the measured pKi for this compound: O=C(NCc1ccco1)c1cc(-c2[nH]ncc2-c2ccccc2)c[nH]1 [II-A-149]
Reply | 5.30 to 6.00

Ask | Please give the measured pKi for this compound: COc1cccc(-c2cn[nH]c2-c2c[nH]c(C(=O)N(C)C)c2)c1 [II-A-154]
Reply | 5.30 to 6.00

Ask | Please give the measured pKi for this compound: O=C(NCc1cccnc1)c1cc(-c2[nH]ncc2-c2ccccc2)c[nH]1 [II-A-153]
Reply | 5.30 to 6.00
